- test.target: factor XIIa (Homo sapiens)
- Sequence (P00748 373-615 limits assumed, other chains not shown): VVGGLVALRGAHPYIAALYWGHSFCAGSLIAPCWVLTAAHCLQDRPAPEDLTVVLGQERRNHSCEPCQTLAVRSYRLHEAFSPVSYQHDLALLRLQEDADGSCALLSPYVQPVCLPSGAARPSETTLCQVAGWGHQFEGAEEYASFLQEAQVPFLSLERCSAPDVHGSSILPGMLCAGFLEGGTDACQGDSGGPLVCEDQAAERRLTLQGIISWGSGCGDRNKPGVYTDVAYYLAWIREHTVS
- assay: Inhibition of factor XIIa: kinetics of hydrolysis of chromogenic substrate S2302
- Assay type: biochemical
- condition.label: substrate S2302, competitive inhibitor fit
Form field: pIC50 (one value per entry).
Kindly note that pIC50 refers to -log10 of the concentration in mol/L and answer with the value alone.

COC(=O)c1c(C)[nH]c(-c2ccccc2)c1C1C(=O)N2c3c(cc(OC)cc31)C(C)=CC2(C)C (centres unmarked) [compound 225738]: 4.89

Please turn your attention to the following entry.
For reference, reported pIC50 for COc1cc2c3c(c1)C1(C(=O)N3C(C)(C)CC2C)C(C#N)=C(N)Oc2c1c(=O)oc1ccccc21 (centres unmarked) [compound 30901] stands at 4.71
